Values compiled from ChEMBL document CHEMBL3882729.

biological target: Vascular endothelial growth factor receptor 2 (Homo sapiens, UniProt P35968); assay: Inhibition of recombinant human N-terminal GST-fused KDR (D807 to V1356 residues) expressed in baculovirus infected […] insect Sf9 cells using poly-EY as substrate after 240 mins by luciferase coupled chemiluminescence assay
Sequence (P35968 whole entry, the tested form may be a part): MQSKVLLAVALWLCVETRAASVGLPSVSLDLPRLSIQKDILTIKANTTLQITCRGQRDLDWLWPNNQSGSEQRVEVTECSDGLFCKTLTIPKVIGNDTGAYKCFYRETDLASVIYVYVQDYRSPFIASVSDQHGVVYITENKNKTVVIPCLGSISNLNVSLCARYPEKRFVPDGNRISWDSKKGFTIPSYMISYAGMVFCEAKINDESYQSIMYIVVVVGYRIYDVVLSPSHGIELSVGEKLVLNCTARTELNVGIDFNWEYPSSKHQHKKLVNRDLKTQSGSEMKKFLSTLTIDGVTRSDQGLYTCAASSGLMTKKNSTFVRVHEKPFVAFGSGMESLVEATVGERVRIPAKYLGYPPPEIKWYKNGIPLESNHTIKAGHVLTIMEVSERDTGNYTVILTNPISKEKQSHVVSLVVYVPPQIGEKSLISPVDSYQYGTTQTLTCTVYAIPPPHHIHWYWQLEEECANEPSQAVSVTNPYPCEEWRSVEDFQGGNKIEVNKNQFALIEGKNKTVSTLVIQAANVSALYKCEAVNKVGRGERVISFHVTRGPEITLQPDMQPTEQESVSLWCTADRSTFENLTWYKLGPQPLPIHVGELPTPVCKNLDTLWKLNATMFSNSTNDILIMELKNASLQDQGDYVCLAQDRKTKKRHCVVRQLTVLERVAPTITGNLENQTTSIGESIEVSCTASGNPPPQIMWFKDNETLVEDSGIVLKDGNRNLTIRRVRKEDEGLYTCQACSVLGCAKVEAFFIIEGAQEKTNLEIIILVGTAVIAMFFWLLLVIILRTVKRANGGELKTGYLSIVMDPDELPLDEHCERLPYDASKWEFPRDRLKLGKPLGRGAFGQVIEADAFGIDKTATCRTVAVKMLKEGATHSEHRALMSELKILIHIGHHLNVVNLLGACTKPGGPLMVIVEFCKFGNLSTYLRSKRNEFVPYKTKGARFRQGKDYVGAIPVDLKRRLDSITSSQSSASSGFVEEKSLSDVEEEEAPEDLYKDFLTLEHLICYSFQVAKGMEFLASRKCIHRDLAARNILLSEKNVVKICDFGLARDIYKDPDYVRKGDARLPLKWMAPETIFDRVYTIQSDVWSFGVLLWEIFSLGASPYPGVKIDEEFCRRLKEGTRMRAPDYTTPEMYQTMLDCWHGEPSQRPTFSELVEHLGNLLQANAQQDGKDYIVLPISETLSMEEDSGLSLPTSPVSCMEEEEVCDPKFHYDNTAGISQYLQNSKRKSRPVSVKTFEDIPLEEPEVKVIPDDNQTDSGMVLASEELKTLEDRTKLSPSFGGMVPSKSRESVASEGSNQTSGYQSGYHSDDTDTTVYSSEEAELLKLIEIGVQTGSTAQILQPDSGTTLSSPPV
pIC50: −log10 of the molar value.
measuredAttribute: pIC50

See these solved cases before continuing.
compound: COc1cc2c(Nc3ccc(Cl)c(Cl)c3F)ncnc2cc1OC[C@@H]1CN(C)CC(=O)N1
pIC50: 6.00 to 7.30
--
compound: COc1cc2c(Nc3ccc(F)c(Cl)c3F)ncnc2cc1OC[C@H]1CN2CCOC[C@H]2CO1
pIC50: 6.00 to 7.30
--
compound: COc1cc2c(Nc3ccc(Cl)c(Cl)c3)ncnc2cc1OCCC1CN(C)C(C)(C)CO1 (configuration not stated)
pIC50: 6.00 to 7.30

Report pIC50 for COc1cc2c(Nc3ccc(Cl)c(Cl)c3)ncnc2cc1OCC1CN(C(N)=NC#N)CCO1 (configuration not stated) please.
> 7.30

And what about the compound COc1cc2c(Nc3ccc(Cl)c(Cl)c3)ncnc2cc1OCC1CN(CC2CCCCC2)CCO1 (configuration not stated) ?
6.00 to 7.30

And what about the compound COc1cc2c(Nc3cc(F)c(Br)c(F)c3)ncnc2cc1OCC1CN(C)CCO1 (configuration not stated) ?
> 7.30

And what about the compound COc1cc2c(Nc3ccc(Cl)c(C)c3)ncnc2cc1OCC1CN(C)CCO1 (configuration not stated) ?
6.00 to 7.30

---

molecular target: Receptor tyrosine-protein kinase erbB-2 (Homo sapiens); test: Inhibition of recombinant human N-terminal GST His6-tagged thrombin cleavage site-fused ErbB2 kinase domain (Q679 to V1255 residues) expressed in baculovirus infected insect Sf9 cells using biotinylated poly-EY as substrate after 60 mins by alphascreen assay
Sequence (P04626 whole entry, the tested form may be a part): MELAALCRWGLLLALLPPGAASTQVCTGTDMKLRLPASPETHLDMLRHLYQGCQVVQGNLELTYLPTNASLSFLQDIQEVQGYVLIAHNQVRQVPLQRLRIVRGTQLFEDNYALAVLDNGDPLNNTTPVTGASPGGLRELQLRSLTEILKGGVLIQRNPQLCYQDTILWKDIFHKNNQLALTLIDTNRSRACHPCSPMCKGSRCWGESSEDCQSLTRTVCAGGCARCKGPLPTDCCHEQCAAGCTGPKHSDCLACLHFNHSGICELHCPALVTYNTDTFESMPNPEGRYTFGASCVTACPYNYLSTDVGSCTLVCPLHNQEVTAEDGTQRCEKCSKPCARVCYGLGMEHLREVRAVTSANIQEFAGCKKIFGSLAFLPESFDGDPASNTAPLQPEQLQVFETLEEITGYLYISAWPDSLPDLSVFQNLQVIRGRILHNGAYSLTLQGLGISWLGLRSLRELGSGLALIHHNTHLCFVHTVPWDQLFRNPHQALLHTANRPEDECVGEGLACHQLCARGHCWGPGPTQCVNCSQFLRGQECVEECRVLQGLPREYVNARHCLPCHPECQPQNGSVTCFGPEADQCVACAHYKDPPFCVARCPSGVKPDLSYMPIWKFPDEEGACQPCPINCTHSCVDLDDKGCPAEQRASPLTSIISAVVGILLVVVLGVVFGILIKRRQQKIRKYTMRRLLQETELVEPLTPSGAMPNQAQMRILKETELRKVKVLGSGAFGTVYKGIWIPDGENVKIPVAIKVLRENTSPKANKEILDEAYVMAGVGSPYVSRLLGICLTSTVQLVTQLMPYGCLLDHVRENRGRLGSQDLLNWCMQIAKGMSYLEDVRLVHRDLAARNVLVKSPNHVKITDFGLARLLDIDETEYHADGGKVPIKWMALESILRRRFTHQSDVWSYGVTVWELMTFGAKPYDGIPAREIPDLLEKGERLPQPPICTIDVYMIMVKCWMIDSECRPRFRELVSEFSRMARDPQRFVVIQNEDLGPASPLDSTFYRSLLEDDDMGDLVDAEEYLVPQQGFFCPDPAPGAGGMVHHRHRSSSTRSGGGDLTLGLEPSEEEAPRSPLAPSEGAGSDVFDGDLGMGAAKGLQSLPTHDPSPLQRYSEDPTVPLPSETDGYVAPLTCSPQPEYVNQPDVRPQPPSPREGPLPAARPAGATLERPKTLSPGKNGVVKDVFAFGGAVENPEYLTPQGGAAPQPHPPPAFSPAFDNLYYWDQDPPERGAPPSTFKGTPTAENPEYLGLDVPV
Reported IC50 is given for each of the following molecules.

molecule: COc1cc2c(Nc3ccc(Br)c(Cl)c3F)ncnc2cc1OCC1CN(C)C(C)(C)CO1 (centres undefined)
IC50: < 50 nM
--
molecule: COc1cc2c(Nc3ccc(Cl)c(Cl)c3)ncnc2cc1OCCC1CN(C)CC(C)(C)O1 (centres undefined)
IC50: 50 to 1000 nM
--
molecule: COc1cc2c(Nc3ccc(Br)c(F)c3F)ncnc2cc1OCC1CN(C)CCO1 (centres undefined)
IC50: 50 to 1000 nM

Report IC50 for COc1cc2c(Nc3ccc(Cl)c(Cl)c3)ncnc2cc1OCC1CN(C(C)=O)CCCO1 (centres undefined) please.
< 50 nM

And what about the molecule COc1cc2c(Nc3cc(Cl)c(Br)cc3F)ncnc2cc1OC[C@@H]1CN2CCC[C@H]2CO1 ?
50 to 1000 nM

And what about the molecule COc1cc2c(Nc3ccc(F)c(Cl)c3F)ncnc2cc1OC[C@H]1CN2CCOC[C@H]2CO1 ?
50 to 1000 nM

And what about the molecule COc1cc2c(Nc3cc(Cl)c(Br)cc3F)ncnc2cc1OCC1CN(C)C(C)(C)CO1 (centres undefined) ?
50 to 1000 nM

And what about the molecule COc1cc2c(Nc3cc(Cl)c(Cl)cc3F)ncnc2cc1OCC1CN(C)C(C)(C)CO1 (centres undefined) ?
< 50 nM

And what about the molecule CCN1CCc2nc(COc3cc4ncnc(Nc5ccc(Cl)c(Cl)c5)c4cc3OC)sc2C1 ?
< 50 nM
